Reference for the values: PubChem BioAssay (NCI)

Test: NCI Yeast Anticancer Drug Screen. Data for the mec2-1 strain (AID 157)
Conditions: S. cerevisiae mec2-1 strain, at 50.0 µM
The panel holds about 79,000 compounds, 15% with a hit somewhere; the sample as a whole holds those more often. Calls of active or inactive are those of the source. Cut-off read from the data, not from the text of the source: active = growth inhibition above about 70%; inactive = the rest.
Tick one outcome: YES = active, NO = inactive

1. CCOCC(OCC)OCC: NO
2. CCCCOP(=O)(OCCCC)/C(C#N)=C/c1ccco1: NO

Qu. Hello, I am checking results. What call was entered for COc1cccc(NC(=S)NC(=O)c2ccccc2)c1 ?
Ans. NO

Qu. Hello, I am checking results. What call was entered for COc1ccc(NC(C)=O)c(C(=O)CCNC(C)=O)c1 ?
Ans. NO
